Reported Selectivity for PKC-theta v. yeast PKC1 values follow for various compounds
biological target: yeast PKC1 (Saccharomyces cerevisiae, UniProt P24583); construct: endogenous in cells; host or cells: yeast control strain; assay: XenoGene counter-screen, yeast PKC1; assay type: cell-based; settings: inverse of (PKC-theta IC50)/(PKC-X IC50)
Sequence (P24583 whole entry): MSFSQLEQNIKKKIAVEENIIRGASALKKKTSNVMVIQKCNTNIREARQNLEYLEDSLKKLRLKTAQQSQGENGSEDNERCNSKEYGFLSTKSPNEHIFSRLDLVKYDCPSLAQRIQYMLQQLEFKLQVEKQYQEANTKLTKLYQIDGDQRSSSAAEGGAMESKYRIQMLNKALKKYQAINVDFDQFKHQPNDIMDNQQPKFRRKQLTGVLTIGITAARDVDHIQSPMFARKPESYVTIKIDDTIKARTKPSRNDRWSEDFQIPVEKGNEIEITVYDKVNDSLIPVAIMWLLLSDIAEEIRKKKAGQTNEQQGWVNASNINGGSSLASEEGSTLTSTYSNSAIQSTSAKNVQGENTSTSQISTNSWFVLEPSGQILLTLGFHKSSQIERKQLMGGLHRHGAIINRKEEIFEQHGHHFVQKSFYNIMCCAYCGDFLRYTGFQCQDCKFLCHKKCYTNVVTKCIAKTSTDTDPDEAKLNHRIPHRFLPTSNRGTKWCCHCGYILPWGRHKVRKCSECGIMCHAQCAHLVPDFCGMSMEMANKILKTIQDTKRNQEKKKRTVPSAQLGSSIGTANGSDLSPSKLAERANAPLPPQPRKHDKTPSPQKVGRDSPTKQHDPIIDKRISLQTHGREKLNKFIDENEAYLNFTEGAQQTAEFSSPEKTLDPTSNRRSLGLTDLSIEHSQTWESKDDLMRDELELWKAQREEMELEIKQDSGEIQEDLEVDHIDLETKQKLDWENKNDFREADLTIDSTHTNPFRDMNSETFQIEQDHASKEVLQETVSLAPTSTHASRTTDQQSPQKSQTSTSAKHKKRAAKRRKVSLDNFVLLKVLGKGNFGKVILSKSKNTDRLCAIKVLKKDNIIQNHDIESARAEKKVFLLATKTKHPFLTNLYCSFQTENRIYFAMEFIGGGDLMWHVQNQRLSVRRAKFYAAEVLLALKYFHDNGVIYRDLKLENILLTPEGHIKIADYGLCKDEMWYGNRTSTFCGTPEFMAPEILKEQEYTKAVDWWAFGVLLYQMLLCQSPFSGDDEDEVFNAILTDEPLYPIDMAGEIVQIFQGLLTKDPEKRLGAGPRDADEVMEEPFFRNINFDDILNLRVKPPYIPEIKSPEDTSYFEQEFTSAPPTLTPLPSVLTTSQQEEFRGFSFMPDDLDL

[
  {
    "smiles-text": "CC(C)(C)c1ccc(Sc2ccc(N)cc2)cc1",
    "Selectivity for PKC-theta v. yeast PKC1": 80
  },
  {
    "smiles-text": "Nc1ccc(Sc2ccc(C(F)(F)F)cc2)cc1",
    "Selectivity for PKC-theta v. yeast PKC1": 32
  },
  {
    "smiles-text": "Nc1ccc(Oc2ccc(Cl)cc2Cl)cc1",
    "Selectivity for PKC-theta v. yeast PKC1": 9.4
  },
  {
    "smiles-text": "CC(C)(C)c1ccc(Oc2ccc(N)cc2)cc1",
    "Selectivity for PKC-theta v. yeast PKC1": 28
  }
]

Provenance of the data: patent US8664277B2
